molecular target: T1, human CD3 expressed on cells (Jurkat cells; human CD4 T cells) (human, UniProt P07766 23-207); test: flow cytometry on human CD4 T cells
T1 construct: whole, on cells; also called human CD3 receptor on T cell surface; human CD3 expressing cells (Jurkat cells)
T1 sequence (P07766 23-207): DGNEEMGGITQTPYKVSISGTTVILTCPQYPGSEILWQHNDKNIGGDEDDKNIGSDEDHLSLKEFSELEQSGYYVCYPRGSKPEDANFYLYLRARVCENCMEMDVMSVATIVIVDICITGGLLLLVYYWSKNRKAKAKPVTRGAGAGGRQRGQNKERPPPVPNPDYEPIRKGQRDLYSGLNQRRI
What EC50 was measured for each of the following?

// below: answered binders
{"binder": "WBP3311_2.166.48-z1-uIgG1K (antibody, V domains shown, Humanized antibody; uIgG1K means human IgG1 constant region and kappa light chain; expressed in 293F cells; also called W3311-2.166.48-z1-uIgG1K) VH: QVQLVQSGAEVKKPGSSVKVSCKASGYSFTTYYIHWVRQAPGQGLEWMGWIFPGNDNIKYSEKFKGRVTITADKSTSTAYMELSSLRSEDTAVYYCAIDSVSIYYFDYWGQGTLVTVSS VL: DIVMTQSPDSLAVSLGERATINCKSSQSLLNSRTRKNYLAWYQQKPGQPPKLLIYWASTRKSGVPDRFSGSGSGTDFTLTISSLQAEDVAVYYCTQSFILRTFGGGTKVEIK", "recorded value": "1.01 nM"}
{"binder": "WBP3311_2.306.4-z1-uIgG1K (antibody, V domains shown, Humanized antibody; uIgG1K means human IgG1 constant region and kappa light chain; expressed in 293F cells; also called W3311-2.306.4-z1-uIgG1K) VH: QVQLVQSGAEVKKPGSSVKVSCKASGFAFTDYYIHWVRQAPGQGLEWMGWISPGNVNTKYNENFKGRVTITADKSTSTAYMELSSLRSEDTAVYYCARDGYSLYYFDYWGQGTLVTVSS VL: DIVMTQSPDSLAVSLGERATINCKSSQSLLNSRTRKNYLAWYQQKPGQPPKLLIYWASTRQSGVPDRFSGSGSGTDFTLTISSLQAEDVAVYYCTQSHTLRTFGGGTKVEIK", "recorded value": "0.253 nM"}
{"binder": "WBP3311_2.306.4 (antibody, IgG2b, V domains shown, Mouse monoclonal antibody from hybridoma; also called W3311-2.306.4; W3311-2.306.4-mIgG2bK) VH: QVQLQQSGPELVKPGASVRISCKASGFAFTDYYIHWVKQRPGQGLEWIGWISPGNVNTKYNENFKGRATLTADLSSSTAYMQLSSLTSEDSAVYFCARDGYSLYYFDYWGQGTTLTVSS VL: DIVMSQSPSSLTVSAGEKVTMSCKSSQSLLNSRTRKNYLAWYQQKPGQSPKLLIYWASTRQSGVPDRFTGSGSGTAFTLTISGVQAEDLAVYFCTQSHTLRTFGGGTKLEIK", "recorded value": "0.461 nM"}

Would you kindly look at the next entry?
Prompt line: Which EC50 value belongs to WBP3311_2.166.48 (antibody, IgG2a, V domains shown, Mouse monoclonal antibody from hybridoma; also called W3311-2.166.48; W3311_2.166.48) VH: QVQLQQSGPELVKPGASVKIACKASGYSFTTYYIHWVKQRPGQGLEWIGWIFPGNDNIKYSEKFKGKATLTADTSSSTAYMQLSSLTSEDSAVYFCAIDSVSIYYFDYWGQGTTLTVSS VL: DIVMSQSPSSLAVSAGEKVTMSCKSSQSLLNSRTRKNYLAWYQQKPGQSPKLLIYWASTRKSGVPDRFTGSGSGTDFTLTINSVQAEDLAVYYCTQSFILRTFGGGTKLEIK ?
Response line: 3.51 nM
